- Test system: Mycobacterium tuberculosis Erdman (autoluminescent)
- test: Einf, fitted maximum growth inhibition of three-drug combination (fraction); higher = stronger maximal inhibition
- reported.conditions: in vitro model: cholesterol 0.05 mM; time point: terminal (~4-5 doublings, model-specific)
endpoint.name: Einf

[
  {
    "compound": "CC(C)/N=c1\\cc2n(-c3ccc(Cl)cc3)c3ccccc3nc-2cc1Nc1ccc(Cl)cc1 [clofazimine] + NNC(=O)c1ccncc1 [isoniazid] + O=[N+]([O-])c1cn2c(n1)OC[C@@H](OCc1ccc(OC(F)(F)F)cc1)C2 [pretomanid]",
    "endpoint.name": "Einf",
    "measured": 0.912
  },
  {
    "compound": "NNC(=O)c1ccncc1 [isoniazid] + CC(=O)NC[C@H]1CN(c2ccc(N3CCOCC3)c(F)c2)C(=O)O1 [linezolid] + O=[N+]([O-])c1cn2c(n1)OC[C@@H](OCc1ccc(OC(F)(F)F)cc1)C2 [pretomanid]",
    "endpoint.name": "Einf",
    "measured": 0.912
  },
  {
    "compound": "COc1nc2ccc(Br)cc2cc1[C@@H](c1ccccc1)[C@@](O)(CCN(C)C)c1cccc2ccccc12 [bedaquiline] + NNC(=O)c1ccncc1 [isoniazid] + CO[C@H]1/C=C/O[C@@]2(C)Oc3c(C)c(O)c4c(O)c(c(/C=N/N5CCN(C)CC5)c(O)c4c3C2=O)NC(=O)/C(C)=C\\C=C\\[C@H](C)[C@H](O)[C@@H](C)[C@@H](O)[C@@H](C)[C@H](OC(C)=O)[C@@H]1C [rifampicin]",
    "endpoint.name": "Einf",
    "measured": 0.918
  },
  {
    "compound": "CC[C@@H](CO)NCCN[C@@H](CC)CO [ethambutol] + NNC(=O)c1ccncc1 [isoniazid] + CC(=O)NC[C@H]1CN(c2ccc(N3CCOCC3)c(F)c2)C(=O)O1 [linezolid]",
    "endpoint.name": "Einf",
    "measured": 0.918
  },
  {
    "compound": "CC[C@@H](CO)NCCN[C@@H](CC)CO [ethambutol] + NC(=O)c1cnccn1 [pyrazinamide] + CO[C@H]1/C=C/O[C@@]2(C)Oc3c(C)c(O)c4c(O)c(c(/C=N/N5CCN(C6CCCC6)CC5)c(O)c4c3C2=O)NC(=O)/C(C)=C\\C=C\\[C@H](C)[C@H](O)[C@@H](C)[C@@H](O)[C@@H](C)[C@H](OC(C)=O)[C@@H]1C [rifapentine]",
    "endpoint.name": "Einf",
    "measured": 0.886
  },
  {
    "compound": "CC[C@@H](CO)NCCN[C@@H](CC)CO [ethambutol] + NNC(=O)c1ccncc1 [isoniazid] + COc1c(N2C[C@@H]3CCCN[C@@H]3C2)c(F)cc2c(=O)c(C(=O)O)cn(C3CC3)c12 [moxifloxacin]",
    "endpoint.name": "Einf",
    "measured": 0.92
  },
  {
    "compound": "COc1c(N2C[C@@H]3CCCN[C@@H]3C2)c(F)cc2c(=O)c(C(=O)O)cn(C3CC3)c12 [moxifloxacin] + O=[N+]([O-])c1cn2c(n1)OC[C@@H](OCc1ccc(OC(F)(F)F)cc1)C2 [pretomanid] + NC(=O)c1cnccn1 [pyrazinamide]",
    "endpoint.name": "Einf",
    "measured": 0.926
  },
  {
    "compound": "NNC(=O)c1ccncc1 [isoniazid] + CC(=O)NC[C@H]1CN(c2ccc(N3CCOCC3)c(F)c2)C(=O)O1 [linezolid] + NC(=O)c1cnccn1 [pyrazinamide]",
    "endpoint.name": "Einf",
    "measured": 0.89
  },
  {
    "compound": "CC(C)/N=c1\\cc2n(-c3ccc(Cl)cc3)c3ccccc3nc-2cc1Nc1ccc(Cl)cc1 [clofazimine] + CC[C@@H](CO)NCCN[C@@H](CC)CO [ethambutol] + COc1c(N2C[C@@H]3CCCN[C@@H]3C2)c(F)cc2c(=O)c(C(=O)O)cn(C3CC3)c12 [moxifloxacin]",
    "endpoint.name": "Einf",
    "measured": 0.885
  }
]

This collection of values is drawn from the supplement of paper PMC8617591.
